Just for reference, patent US10925971B2 is where these values come from.

tested on: PC3 cells; assay: In vitro cell viability (cell kill) assay, CCK8; format: cell-based, human; conditions: Table 11, 3 days
reported_endpoint: pIC50
The value called pIC50 is obtained by taking minus log10 of the concentration in mol/L.

[[record]]
molecule = "H1H6953N-DM1 (conjugate) VH: EVQLLESGGGLVQPGGTLRLSCAASGFTFSAYAMSWVRQAPGKGLEWVSSINVRAGDTYYADSVKGRFTISRDNSKNTLFLLMNSLRAEDTAAYYCAKARYSSNWGFDFWGQGTLVTVSS VL: DIVMTQSPDSLTVSLGARTTINCQSSQTILHSSNNHNYLAWYQQKPGLPPKLLIYWSSTRESGVPDRFSGSGSGTDFTLTISSLQAEDVAIYYCQQYSNTPYTFGQGTKLEIN"
reported_endpoint = "pIC50"
observed_measurement = 6.96

[[record]]
molecule = "H1H6959N2-DM1 (conjugate) VH: EVQLVESGGGLVQPGRSLRLSCAASGFTFDDYAMHWVRQAPGKGLEWVSGISWHSGIIGYADSVKGRFTISRDNAKNSLYLQMNSLRTEDAALYYCAKIGSYFYFDSWGQGTLVTVSS VL: EIVLTQSPGTLSLSPGERATLSCRASQSVSSNYLAWYQQKPGQAPRLLIYGASSRATGIPDRFSGSGSGTDFTLTISRLEPEDFAVYYCQQFGSSGYTFGQGTNLEIK"
reported_endpoint = "pIC50"
observed_measurement = 6.82


Alright, here's another molecule for you.
Measured pIC50 of H1H6793P-DM1 (conjugate) VH: EVQLVESGGGLVQPGGSLRLSCAASGFSFSIYAMSWFRQAPGKGLEWVSAINGRGDGTHYADSVKGRFTISRDNSKTTLYLQMSSLRAEDTAVYYCAKPVMSTNGFDIWGQGTMVTVSS VL: DIQMTQSPSTLSASVGDRVTITCRASQSISSWLAWYQLKPGKAPKLLIYKASNLESGVPSRFSGSGSGTEFTLTISSLQPDDFATYYCQQYNIYWTFGQGTKVEIK : 6.70
